# Test system: HCT-116
# PROCEDURE_TEXT: NCI tumour cell line growth inhibition, 48 h
Active and inactive are the calls of the source. No stated cut-off is given here; in the data, active = GI50 up to about 1.1 µM and inactive = higher.
Entries and their GI50

Solved entries:
>>> obs_value("NC(=O)N1N=C2c3ccccc3CC[C@@H]2C1c1ccccc1 (stereo not given in full)")
"> 100 µM (inactive)"
>>> obs_value("COc1ccc2c(c1)C=C([N+](=O)[O-])C(C1OC(C)(C)OC1C1COC(C)(C)O1)O2 (stereo not given)")
"1.79 µM (inactive)"
>>> obs_value("COC[C@@H]1[C@H]2OC(C)(C)O[C@H]2C(=O)N1C(=O)c1ccc(OC)cc1")
"> 100 µM (inactive)"
>>> obs_value("C/C(CC(=O)Nc1cc(Cl)c(Cl)cc1Cl)=N\\NC(N)=O")
"> 100 µM (inactive)"
>>> obs_value("O=C(c1ccccc1)c1nnn(Cc2cccc(Cl)c2)c1C(=O)c1ccccc1")
"> 100 µM (inactive)"

Read the next record carefully.
# GI50 (compound: CC1(C)OC2C(CO)OC(N/C(=N/C#N)Oc3ccccc3)C2O1 (stereo not given) ) is > 100 µM (inactive)
